Values compiled from patent US20140213531A1.

TESTED ON: T1, CathepsinG, from human neutrophils (human, UniProt P08311 21-244)
T1 sequence (looked up): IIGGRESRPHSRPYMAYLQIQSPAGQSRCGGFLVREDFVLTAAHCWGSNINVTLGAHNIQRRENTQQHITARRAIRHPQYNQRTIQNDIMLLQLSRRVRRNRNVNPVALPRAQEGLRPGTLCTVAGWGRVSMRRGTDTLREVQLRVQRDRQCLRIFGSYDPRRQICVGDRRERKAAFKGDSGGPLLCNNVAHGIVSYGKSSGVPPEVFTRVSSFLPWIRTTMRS
PROTOCOL SUMMARY: cell-based or functional assay
ENDPOINT: IC50 (nmol)
Entry rule: numbers only, all in nmol.

IC50 in this record for RCTKSDPPICF (HELM PEPTIDE1{R.C.T.K.S.D.P.P.I.C.F.[dP].P}$PEPTIDE1,PEPTIDE1,2:R3-10:R3|PEPTIDE1,PEPTIDE1,1:R1-13:R2$$$V2.0; SMILES CC[C@H](C)[C@@H]1NC(=O)[C@@H]2CCCN2C(=O)[C@@H]2CCCN2C(=O)[C@H](CC(=O)O)NC(=O)[C@H](CO)NC(=O)[C@H](CCCCN)NC(=O)[C@H]([C@@H](C)O)NC(=O)[C@@H]2CSSC[C@H](NC1=O)C(=O)N[C@@H](Cc1ccccc1)C(=O)N1CCC[C@@H]1C(=O)N1CCC[C@H]1C(=O)N[C@@H](CCCNC(=N)N)C(=O)N2) [Example 75] : 86
